Molecular target: T1, human BCMA on cells (human, UniProt Q02223 1-184)
T1 construct: also called hBCMA; BCMA on NCI-H929, ARP-1, OPM-2, U266B1, MM.1S, RPMI-8226 cells
T1 sequence: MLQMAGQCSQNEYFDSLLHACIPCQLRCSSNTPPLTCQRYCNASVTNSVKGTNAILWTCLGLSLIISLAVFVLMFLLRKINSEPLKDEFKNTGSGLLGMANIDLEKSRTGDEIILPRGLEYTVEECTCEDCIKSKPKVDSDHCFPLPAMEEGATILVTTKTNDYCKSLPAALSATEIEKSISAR
Assay: FACS, NCI-H929 cells
measureName: Kd (nM)
# unit: nM | format: bare number

Exercise: Would you kindly share the measured Kd for 11D6 (antibody, V domains shown, Chicken HybriFree-derived antibody; also called Antibody 32) VH: AVTLDESGGGLQTPGGTLSLVCKASGFTFSSFNMFWVRQAPGEGLEWVAYIRNDGRSTSYGPAVKGRATISRDNGQSTVRLQLNNLRAEDTGTYFCAKTTCVGSGGCIDTWGHGTEVIVSS VL: ALTQPSSVSANPGETVEITCSGGNSDYGWFQQKSPGSAPVTVIYRNNQRPSDIPSRFSGSGSGSTNTLTITGVQAEDEAIYYCGNVDFTDDVFGAGTTLTVL ?
Key: 47.5
